Target: C-X-C chemokine receptor type 3 (Homo sapiens, UniProt P49682)
Sequence (P49682 whole entry): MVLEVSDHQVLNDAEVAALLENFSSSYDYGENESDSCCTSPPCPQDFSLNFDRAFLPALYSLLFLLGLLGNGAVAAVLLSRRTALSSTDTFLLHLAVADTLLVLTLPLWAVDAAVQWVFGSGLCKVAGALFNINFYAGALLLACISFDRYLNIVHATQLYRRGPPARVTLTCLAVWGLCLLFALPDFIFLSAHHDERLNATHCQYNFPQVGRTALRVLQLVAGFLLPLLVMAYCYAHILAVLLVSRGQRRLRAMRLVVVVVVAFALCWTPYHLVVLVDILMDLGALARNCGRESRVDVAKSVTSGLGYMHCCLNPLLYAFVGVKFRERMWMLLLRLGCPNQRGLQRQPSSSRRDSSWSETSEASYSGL
Assay: Displacement of [125I]IP10 from human recombinant CXCR3 receptor expressed in IL2-activated human PBMC in presence of plasma
Checkbox rule: IC50 lower than 200 nM = Condition met; IC50 not lower than 200 nM = Condition not met.

entry_smiles=CCOc1ccc(-n2cc(-c3ccccc3)nc2[C@@H](C)N(Cc2ccncc2)C(=O)Cc2ccc(F)c(C(F)(F)F)c2)cc1 category_label="Condition met"
entry_smiles=CCOc1ccc(-n2cc(-c3ccccc3)nc2[C@@H](C)N(Cc2ccccn2)C(=O)Cc2ccc(F)c(C(F)(F)F)c2)cc1 category_label="Condition not met"
entry_smiles=CCS(=O)(=O)CCN(C(=O)Cc1ccc(F)c(C(F)(F)F)c1)[C@H](C)c1nc(C2CC2)c(-c2ccccc2)n1-c1ccc(C#N)cc1 category_label="Condition not met"
entry_smiles=CCS(=O)(=O)CCN(C(=O)Cc1ccc(F)c(C(F)(F)F)c1)[C@H](C)c1nc(C(C)C)cn1-c1ccc(C#N)cc1 category_label="Condition met"
entry_smiles=CCS(=O)(=O)CCN(C(=O)Cc1ccc(F)c(C(F)(F)F)c1)[C@H](C)c1nc(C(C)(C)C)cn1-c1ccc(C#N)cc1 category_label="Condition met"
entry_smiles=CCc1c(C2CC2)nc([C@@H](C)N(CCS(=O)(=O)CC)C(=O)Cc2ccc(F)c(C(F)(F)F)c2)n1-c1ccc(C#N)cc1 category_label="Condition met"
entry_smiles=CCS(=O)(=O)CCN(C(=O)Cc1ccc(F)c(C(F)(F)F)c1)[C@H](C)c1nc(C2CC2)cn1-c1ccc(C#N)cc1 category_label="Condition met"
entry_smiles=CCS(=O)(=O)CCN(C(=O)Cc1ccc(F)c(C(F)(F)F)c1)[C@H](C)c1nc(C2CC2)c(CF)n1-c1ccc(C#N)cc1 category_label="Condition met"
entry_smiles=CCS(=O)(=O)CCN(C(=O)Cc1ccc(F)c(C(F)(F)F)c1)[C@H](C)c1nc(C2CC2)c(C#N)n1-c1ccc(C#N)cc1 category_label="Condition not met"
entry_smiles=CCOc1ccc(-n2cc(-c3ccccc3)nc2[C@@H](C)N(CCS(=O)(=O)CC)C(=O)Cc2ccc(OC(F)(F)F)cc2)cc1 category_label="Condition met"
entry_smiles=CCOc1ccc(-n2cc(-c3ccccc3)nc2[C@@H](C)N(C[C@@H]2CCCN2)C(=O)Cc2ccc(F)c(C(F)(F)F)c2)cc1 category_label="Condition met"
entry_smiles=CCOc1ccc(-n2cc(-c3ccccc3)nc2[C@@H](C)N(CCS(=O)(=O)CC)C(=O)Cn2cc(-c3ccccc3)nn2)cc1 category_label="Condition met"
entry_smiles=CCOc1ccc(-n2cc(-c3ccccc3)nc2[C@@H](C)N(CCS(=O)(=O)CC)C(=O)Cn2nnc(-c3ccc(F)cc3)n2)cc1 category_label="Condition met"
entry_smiles=CCOc1ccc(-n2cc(-c3ccccc3)nc2[C@@H](C)N(CCS(=O)(=O)CC)C(=O)Cn2nnc(C3CC3)n2)cc1 category_label="Condition not met"

* * *

Parameter: CL. Scope: all listed entries.
system: Rattus norvegicus; test: Clearance in rat at 0.5 mg/kg, iv; assay type: ADME, organism-based; design: dose 0.5 mg/kg, route intravenous; conditions: in vivo
attribute.measured: CL (mL/min/kg)

entry_smiles=CCS(=O)(=O)CCN(C(=O)Cc1ccc(F)c(C(F)(F)F)c1)[C@H](C)c1nc(C2CC2)cn1-c1ccc(C#N)cc1 system="Rattus norvegicus" unit_info=mL/min/kg value_measured=55
entry_smiles=CCS(=O)(=O)CCN(C(=O)Cc1ccc(F)c(C(F)(F)F)c1)[C@H](C)c1nc(-c2ccccc2)cn1-c1ccc(C#N)cc1 system="Rattus norvegicus" unit_info=mL/min/kg value_measured=91.7
entry_smiles=CCS(=O)(=O)CCN(C(=O)Cc1ccc(F)c(C(F)(F)F)c1)[C@H](C)c1nc(C2CC2)c(C(F)F)n1-c1ccc(C#N)cc1 system="Rattus norvegicus" unit_info=mL/min/kg value_measured=36.7
entry_smiles=CCS(=O)(=O)CCN(C(=O)Cc1ccc(F)c(C(F)(F)F)c1)[C@H](C)c1nc(C2CC2)c(Cl)n1-c1ccc(C#N)cc1 system="Rattus norvegicus" unit_info=mL/min/kg value_measured=38.3

* * *

Measured Papp, listed per entry for reference.
test: Membrane permeability by PAMPA assay; assay type: ADME; conditions: read-out: permeability
attribute.measured: Papp (nm/s)

entry_smiles=CCS(=O)(=O)CCN(C(=O)Cc1ccc(F)c(C(F)(F)F)c1)[C@H](C)c1nc(-c2ccccc2)cn1-c1ccc(C#N)cc1 value_measured=9
entry_smiles=CCS(=O)(=O)CCN(C(=O)Cc1ccc(F)c(C(F)(F)F)c1)[C@H](C)c1nc(C2CC2)cn1-c1ccc(C#N)cc1 value_measured=51

* * *

biological target: UniProtKB P49682; assay: Antagonist activity at human CXCR3 receptor assessed as ITAC-induced cellular migration in PBMC in presence of plasma; type: functional
Recorded measurements of log10(Activity), one per entry
attribute.measured: log10(Activity) (log10 of the value in nM)

entry_smiles=CCS(=O)(=O)CCN(C(=O)Cc1ccc(F)c(C(F)(F)F)c1)[C@H](C)c1nc(-c2cccnc2)cn1-c1ccc(C#N)cc1 attribute_measured=log10(Activity) value_measured=1.96
entry_smiles=CCS(=O)(=O)CCN(C(=O)Cc1ccc(F)c(C(F)(F)F)c1)[C@H](C)c1nc(C2CC2)c(C(F)(F)F)n1-c1ccc(C#N)cc1 attribute_measured=log10(Activity) value_measured=2.43
entry_smiles=CCS(=O)(=O)CCN(C(=O)Cc1ccc(F)c(C(F)(F)F)c1)[C@H](C)c1nc(C2CC2)cn1-c1ccc(C#N)cc1 attribute_measured=log10(Activity) value_measured=1.72
entry_smiles=CCS(=O)(=O)CCN(C(=O)Cc1ccc(F)c(C(F)(F)F)c1)[C@H](C)c1nc(C2CC2)c(CF)n1-c1ccc(C#N)cc1 attribute_measured=log10(Activity) value_measured=2.08
entry_smiles=CCS(=O)(=O)CCN(C(=O)Cc1ccc(F)c(C(F)(F)F)c1)[C@H](C)c1nc(-c2ccccc2)cn1-c1ccc(C#N)cc1 attribute_measured=log10(Activity) value_measured=1.00
entry_smiles=C=Cc1c(C2CC2)nc([C@@H](C)N(CCS(=O)(=O)CC)C(=O)Cc2ccc(F)c(C(F)(F)F)c2)n1-c1ccc(C#N)cc1 attribute_measured=log10(Activity) value_measured=1.65
entry_smiles=CCS(=O)(=O)CCN(C(=O)Cc1ccc(F)c(C(F)(F)F)c1)[C@H](C)c1nc(C2CC2)c(Cl)n1-c1ccc(C#N)cc1 attribute_measured=log10(Activity) value_measured=1.90
entry_smiles=CCS(=O)(=O)CCN(C(=O)Cc1ccc(F)c(C(F)(F)F)c1)[C@H](C)c1nc(C(C)C)cn1-c1ccc(C#N)cc1 attribute_measured=log10(Activity) value_measured=1.73
entry_smiles=CCc1c(C2CC2)nc([C@@H](C)N(CCS(=O)(=O)CC)C(=O)Cc2ccc(F)c(C(F)(F)F)c2)n1-c1ccc(C#N)cc1 attribute_measured=log10(Activity) value_measured=1.46
entry_smiles=CCS(=O)(=O)CCN(C(=O)Cc1ccc(F)c(C(F)(F)F)c1)[C@H](C)c1nc(-c2ccccn2)cn1-c1ccc(C#N)cc1 attribute_measured=log10(Activity) value_measured=1.52
entry_smiles=CCS(=O)(=O)CCN(C(=O)Cc1ccc(F)c(C(F)(F)F)c1)[C@H](C)c1nc(C2CC2)c(CO)n1-c1ccc(C#N)cc1 attribute_measured=log10(Activity) value_measured=2.05
entry_smiles=CCS(=O)(=O)CCN(C(=O)Cc1ccc(F)c(C(F)(F)F)c1)[C@H](C)c1nc(C2CC2)c(C(F)F)n1-c1ccc(C#N)cc1 attribute_measured=log10(Activity) value_measured=1.30
entry_smiles=CCS(=O)(=O)CCN(C(=O)Cc1ccc(F)c(C(F)(F)F)c1)[C@H](C)c1nc(C(C)(C)C)cn1-c1ccc(C#N)cc1 attribute_measured=log10(Activity) value_measured=2.00

* * *

target: C-X-C chemokine receptor type 3 (Homo sapiens); test: Displacement of [125I]IP10 from human recombinant CXCR3 receptor expressed in IL2-activated human PBMC
Listed molecules paired with reported log10 of IC50
attribute.measured: log10 of IC50 (log10 of the value in nM)

entry_smiles=CCOc1ccc(-n2cc(-c3ccccc3)nc2[C@@H](C)N(C[C@H]2CCCN2C)C(=O)Cc2ccc(F)c(C(F)(F)F)c2)cc1 value_measured=1.15
entry_smiles=CCOc1ccc(-n2cc(-c3ccccc3)nc2[C@@H](C)N(Cc2ccncc2)C(=O)Cc2ccc(F)c(C(F)(F)F)c2)cc1 value_measured=1.54
entry_smiles=CCS(=O)(=O)CCN(C(=O)Cc1ccc(F)c(C(F)(F)F)c1)[C@H](C)c1nc(-c2ccccc2)cn1-c1ccc(C#N)cc1 value_measured=-0.15
entry_smiles=CCS(=O)(=O)CCN(C(=O)Cc1ccc(F)c(C(F)(F)F)c1)[C@H](C)c1nc(C(C)(C)C)cn1-c1ccc(C#N)cc1 value_measured=0.40
entry_smiles=CCc1c(C2CC2)nc([C@@H](C)N(CCS(=O)(=O)CC)C(=O)Cc2ccc(F)c(C(F)(F)F)c2)n1-c1ccc(C#N)cc1 value_measured=0.51
entry_smiles=CCOc1ccc(-n2cc(-c3ccccc3)nc2[C@@H](C)N(Cc2ccccn2)C(=O)Cc2ccc(F)c(C(F)(F)F)c2)cc1 value_measured=1.90
entry_smiles=CCS(=O)(=O)CCN(C(=O)Cc1ccc(F)c(C(F)(F)F)c1)[C@H](C)c1nc(C2CC2)c(C#N)n1-c1ccc(C#N)cc1 value_measured=1.86
entry_smiles=CCOc1ccc(-n2cc(-c3ccccc3)nc2[C@@H](C)N(CCCS(=O)(=O)CC)C(=O)Cc2ccc(F)c(C(F)(F)F)c2)cc1 value_measured=0.38
entry_smiles=CCS(=O)(=O)CCN(C(=O)Cc1ccc(F)c(C(F)(F)F)c1)[C@H](C)c1nc(-c2ccccn2)cn1-c1ccc(C#N)cc1 value_measured=0.60
entry_smiles=CCOc1ccc(-n2cc(-c3ccccc3)nc2[C@@H](C)N(Cc2cccnc2)C(=O)Cc2ccc(F)c(C(F)(F)F)c2)cc1 value_measured=1.04
entry_smiles=CCOc1ccc(-n2cc(-c3ccccc3)nc2[C@@H](C)N(CCS(=O)(=O)CC)C(=O)Cn2cc(-c3ccccc3)nn2)cc1 value_measured=0.75
entry_smiles=C=Cc1c(C2CC2)nc([C@@H](C)N(CCS(=O)(=O)CC)C(=O)Cc2ccc(F)c(C(F)(F)F)c2)n1-c1ccc(C#N)cc1 value_measured=0.58
entry_smiles=CCS(=O)(=O)CCN(C(=O)Cc1ccc(F)c(C(F)(F)F)c1)[C@H](C)c1nc(C(C)C)cn1-c1ccc(C#N)cc1 value_measured=0.41
entry_smiles=CCOc1ccc(-n2cc(-c3ccccc3)nc2[C@@H](C)N(C[C@H]2CCCN2)C(=O)Cc2ccc(F)c(C(F)(F)F)c2)cc1 value_measured=1.66
